- TEST SUMMARY: NCI Yeast Anticancer Drug Screen. Data for the sgs1 mgt1 strain (AID 161)
- CONDITION LABEL: S. cerevisiae sgs1 mgt1 strain, at 50.0 µM
The panel holds about 79,000 compounds, 15% with a hit somewhere; the sample as a whole holds those more often. The source made the active and inactive calls. Rule as the data show it: active = growth inhibition above about 70%; inactive = the rest.
Please state which outcome applies, choosing from active, inactive

SMI: CC1(C)[C@@H]2CC[C@]1(C)[C@H](OC(=O)C(Cl)(Cl)Cl)C2
QUALITATIVE LABEL: inactive

Outcome? c1cs[c]([Hg][c]2cccs2)c1 active

Outcome? C(#C[PH+](c1ccccc1)c1ccccc1)c1ccccc1.C(#C[PH+](c1ccccc1)c1ccccc1)c1ccccc1.C(#C[PH+](c1ccccc1)c1ccccc1)c1ccccc1.[C-]#[O+].[C-]#[O+].[C-]#[O+].[Cr] active
